The following variants are shown together with reported self-cleavage values.
B1: OR4K15 (parent)
chain: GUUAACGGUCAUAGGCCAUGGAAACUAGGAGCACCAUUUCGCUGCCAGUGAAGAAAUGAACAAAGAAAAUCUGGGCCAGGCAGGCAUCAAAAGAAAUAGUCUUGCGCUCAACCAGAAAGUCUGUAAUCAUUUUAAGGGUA

Variants of: B1
Assay: self-cleavage, relative activity (ratio to wild type); higher = more cleavage; in vitro, sequencing; the parent is a self-cleaving ribozyme

Mutation list: U19C A78G
self-cleavage: 0.29
--
Mutation list: G29A A125G
self-cleavage: 0.24
--
Mutation list: A91G U131C
self-cleavage: 1.07
--
Mutation list: A52C A140G
self-cleavage: 1.87
--
Mutation list: A30G C105U
self-cleavage: 0.17
--
Mutation list: A23U A27G
self-cleavage: 1.16
--
Mutation list: A18G U124A
self-cleavage: 0.9
--
Mutation list: U43A U87A
self-cleavage: 1.94
--
Mutation list: G80A U132C
self-cleavage: 0.08
--
Mutation list: G106A A118U
self-cleavage: 0
--
Mutation list: U72G U120C
self-cleavage: 0.13
--
Mutation list: A5G A30U
self-cleavage: 1.14
--
Mutation list: A60U G115A
self-cleavage: 0.29
--
Mutation list: U26A U39A
self-cleavage: 0.92
--
Mutation list: G106U U127C
self-cleavage: 0.01
--
Mutation list: U37C C61A
self-cleavage: 0.78
--
Mutation list: A82G G106A
self-cleavage: 0.01
--
Mutation list: U100A A111G
self-cleavage: 0.02
--
Mutation list: U37A A96G
self-cleavage: 2.31
--
Mutation list: A5U A67U
self-cleavage: 0.99
--
Mutation list: A36G A118U
self-cleavage: 0.73
--
Mutation list: U19A A89U
self-cleavage: 0.85
